- TEST_TARGET: recombinant HLA-DRA*01:01/DRB1*01:01 molecules (Homo sapiens, UniProt P01903+P01911, A100R/D57E/F55L/F60I/F76Y/I96L/L162R/M171V/P40L/Q125E/R42F/V115G/Y59C)
- EXPERIMENTAL_PROTOCOL: biochemical
- Type: binding
- EXPERIMENTAL_PARAMETERS: read-out: HLA-DRB1*01:01 Measured
Where a SMILES comes first, the peptide text is derived from it.
Note to self: Kd under 200 nM means rule met, ties and anything higher get rule not met.

Solved cases below.
1. CC[C@H](C)[C@H](NC(=O)[C@@H]1CCCN1C(=O)[C@H](CCCNC(=N)N)NC(=O)[C@@H](NC(=O)[C@H](CCCCN)NC(=O)[C@H](CC(C)C)NC(=O)[C@H](Cc1c[nH]c2ccccc12)NC(=O)[C@H](CCC(=O)O)NC(=O)[C@H](CCSC)NC(=O)[C@H](CC(C)C)NC(=O)[C@@H](N)C(C)C)[C@@H](C)O)C(=O)O [M(41–51)] (H-VLMEWLKTRPI-OH) : rule met
2. CSCC[C@H](NC(=O)CNC(=O)[C@H](CCSC)NC(=O)[C@@H](N)CCSC)C(=O)N[C@@H](Cc1ccccc1)C(=O)N[C@@H](CC(N)=O)C(=O)N[C@@H](CCSC)C(=O)N[C@@H](CC(C)C)C(=O)N[C@@H](CO)C(=O)N[C@H](C(=O)N[C@H](C(=O)O)C(C)C)[C@@H](C)O [PB1(408–418)] (H-MMGMFNMLSTV-OH) : rule met
3. CC[C@H](C)[C@H](NC(=O)[C@H](CO)NC(=O)[C@H](CC(C)C)NC(=O)[C@H](CCCCN)NC(=O)[C@H](CC(C)C)NC(=O)[C@H](C)NC(=O)[C@H](CC(=O)O)NC(=O)[C@H](CCSC)NC(=O)[C@H](CC(C)C)NC(=O)[C@H](CC(C)C)NC(=O)[C@@H](N)Cc1ccccc1)C(=O)O [PA(282–292)] (H-FLLMDALKLSI-OH) : rule met

Lab note: confirm whether the reported Kd for this compound is below 200 nM, equality not counting. compound: CSCC[C@H](NC(=O)CNC(=O)[C@H](CCSC)NC(=O)[C@H](CCSC)NC(=O)[C@@H](N)CCSC)C(=O)N[C@@H](Cc1ccccc1)C(=O)N[C@@H](CC(N)=O)C(=O)N[C@@H](CCSC)C(=O)N[C@@H](CC(C)C)C(=O)N[C@@H](CO)C(=O)N[C@H](C(=O)O)[C@@H](C)O [PB1(407–417)] (H-MMMGMFNMLST-OH)
rule not met

Let us now turn to CC[C@H](C)[C@H](NC(=O)[C@H](CC(C)C)NC(=O)[C@@H](N)Cc1ccc(O)cc1)C(=O)N[C@@H](CCCNC(=N)N)C(=O)N[C@@H](C)C(=O)N[C@@H](CC(C)C)C(=O)N[C@H](C(=O)N[C@@H](CC(C)C)C(=O)N[C@@H](CC(N)=O)C(=O)N[C@H](C(=O)N[C@@H](CCSC)C(=O)O)[C@@H](C)O)[C@@H](C)O [PB1(217–227)] (H-YLIRALTLNTM-OH)
rule met

Let us now turn to CC[C@H](C)[C@H](NC(=O)[C@@H]1CCCN1C(=O)[C@H](Cc1ccc(O)cc1)NC(=O)[C@H](CCCCN)NC(=O)[C@H](CCSC)NC(=O)[C@H](C)NC(=O)[C@H](CCSC)NC(=O)[C@H](CCSC)NC(=O)[C@@H](N)Cc1c[nH]c2ccccc12)C(=O)N[C@H](C(=O)N[C@@H](C)C(=O)O)[C@@H](C)O [PB2(49–59)] (H-WMMAMKYPITA-OH)
rule not met
